# Experimental Details: Toxicity in Artemia salina assessed as lethality after 24 hrs

Compound Structure | LC50 at 24 h
CCCC[C@@H](C)[C@@H]1[C@@H]2C=C[C@H]3[C@H](C)[C@@H](O)[C@@H](O)[C@@H]3[C@]1(C)OC2=O | 65.6 µg/mL
